Test system: SF-295 CNS
Assay: NCI tumour cell line growth inhibition, 48 h
Entries annotated with measured TGI

A selection of reference data follows.
>  <compound>
CCOc1c(Br)cc(Br)cc1C=C(C#N)C#N

>  <measured-quantity>
TGI

>  <observed>
> 10 µM

$$$$
>  <compound>
Cn1c(=O)c2c(nc3[nH]c(=O)c(Br)cn32)n(C)c1=O

>  <measured-quantity>
TGI

>  <observed>
> 100 µM

$$$$
>  <compound>
COc1cc(C)c2c(c1)CN1CN2Cc2cc(OC)cc(C)c21

>  <measured-quantity>
TGI

>  <observed>
> 100 µM

$$$$
>  <compound>
COc1ccc(-n2cc(-c3ccc(OC)c(OC)c3)[nH]c2=O)cc1

>  <measured-quantity>
TGI

>  <observed>
> 100 µM

$$$$
>  <compound>
Cc1cc(=O)[nH]c(NNC(C#N)c2cccc([N+](=O)[O-])c2)n1 (stereo unspecified)

>  <measured-quantity>
TGI

>  <observed>
> 100 µM

$$$$

Now look at this entry.
Req: Any idea what TGI was measured for Cn1c(I)c(C#C[Si](C)(C)C)c(=O)n(C(=O)c2ccccc2)c1=O ?
Resp: 48.7 µM

----------
Parameter GI50: see the listing below.
System: MDA-MB-231 breast
Test: NCI tumour cell line growth inhibition, 48 h

Consider the worked cases shown below.
>  <compound>
COc1cc(C2CC(c3ccc(Nc4nc(NCCO)nc(NCCO)n4)cc3)=NN2c2cc(Cl)cc(Cl)c2)cc(OC)c1OC (centres undefined)

>  <measured-quantity>
GI50

>  <observed>
1450 nM

$$$$
>  <compound>
CCCCCCCC(=O)OCC/C=C/C1OC1C1OC(=O)/C=C\C=C\C(=O)N(C(C)=O)C(=O)/C=C(/C)CCC2OC2C1OC(=O)NC(C)=O (centres undefined)

>  <measured-quantity>
GI50

>  <observed>
10500 nM

$$$$
>  <compound>
Cn1c(COC(=O)NCCc2ccccn2)nc2c(N3CCOCC3)nc(Cl)nc21

>  <measured-quantity>
GI50

>  <observed>
1620 nM

$$$$

Alright, here's another compound for you.
Req: // returns reported GI50 for input Cn1c(COC(=O)NCCn2ccnc2)nc2c(N3CCOCC3)nc(-c3ccccc3)nc21
Resp: 1060 nM

----------
Tested on: SK-MEL-28 melanoma
Experiment: NCI tumour cell line growth inhibition, 48 h
measured-quantity: log10 of TGI (log10 of the value in µM)
Please keep in mind that the values are log10 of TGI expressed in µM.

Previously resolved entries follow.
>  <smiles-input>
OCc1ccc(N(Cc2ccc(F)cc2)Cc2ccc(F)cc2)cc1Cl

>  <target-desc>
SK-MEL-28 melanoma

>  <log10 of TGI>
1.44

$$$$
>  <smiles-input>
COc1cc(CCNC2=CC(=O)c3nc[nH]c3C2=O)ccc1O

>  <target-desc>
SK-MEL-28 melanoma

>  <log10 of TGI>
1.78

$$$$
>  <smiles-input>
Clc1ccc2c(c1)N(CCCN1CCCC13CCCCC3)c1ccccc1S2

>  <target-desc>
SK-MEL-28 melanoma

>  <log10 of TGI>
1.48

$$$$

Req: // map Cc1cccc(N2C(=O)/C(=C/C(Cl)=C/c3ccc([N+](=O)[O-])cc3)SC2=S)c1C to recorded log10 of TGI (system: SK-MEL-28 melanoma)
Resp: 0.85

Req: Let us now turn to CC(=O)C(=Cc1cn(C)c(=O)n(C)c1=O)C(C)=O
Resp: 2.32

----------
# GI50 per record follows
System: U251 CNS

>  <molecule>
O=c1[nH]c(C2CCCN2)nc2c1oc1ccc(Cl)cc12 (stereo not given)

>  <target-desc>
U251 CNS

>  <GI50>
36.2 µM

$$$$
>  <molecule>
C[C@@]1(F)[C@H](O)[C@@H](CO)O[C@H]1n1ccc(=O)[nH]c1=O

>  <target-desc>
U251 CNS

>  <GI50>
> 100 µM

$$$$
>  <molecule>
O=C(Nc1sc2c(c1C(=O)O)CCCC2)c1ccco1

>  <target-desc>
U251 CNS

>  <GI50>
16.4 µM

$$$$
>  <molecule>
COc1cc(N2C(=O)[C@H](Cl)C2c2ccc(SC)cc2)cc(OC)c1OC (stereo not given in full)

>  <target-desc>
U251 CNS

>  <GI50>
0.124 µM

$$$$

Req: May I ask what GI50 has been recorded for CC1(C)CC(C)(C)c2cc(NC(=S)Nc3ccc([N+](=O)[O-])cc3)ccc2S1 ?
Resp: 11.1 µM

----------
Tested on: NCI/ADR-RES ovarian
Assay: NCI tumour cell line growth inhibition, 48 h
measured-quantity: GI50

>  <molecule>
CN1CCN(C2=NC(=O)/C(=C\c3ccc(N(C)C)cc3)S2)CC1

>  <target-desc>
NCI/ADR-RES ovarian

>  <observed>
> 100 µM

$$$$

Req: Please give the measured GI50 for this molecule: CCCC(=O)O[C@]1(C)CC[C@@H]2[C@H]3[C@@H]1[C@@H]1C[C@@](C)(O)[C@H](OC)CC[C@](C)(OC(=O)[C@@H]2C)[C@H]3O1
Resp: 67.1 µM

Req: One more molecule: COc1ccc(-n2cc(-c3ccc(OC)c(OC)c3)[nH]c2=O)cc1
Resp: > 100 µM

Req: Same question for CC(C)(C)C[C@H]1N[C@@H](C(=O)NC2CCC(O)CC2)[C@H](c2cccc(Cl)c2F)[C@@]12C(=O)Nc1cc(Cl)ccc12 (stereo partly drawn) please.
Resp: 14 µM

Req: Param item: O=C1c2cccc3cccc(c23)C(=O)N1CCCCCN1CCN(CCN=c2cc3n(-c4ccc(Cl)cc4)c4ccccc4nc-3cc2Nc2ccc(Cl)cc2)CC1
Resp: 6.95 µM

Req: Now consider CC1(C)CC(C)(C)c2cc(NC(=S)Nc3ccc([N+](=O)[O-])cc3)ccc2S1 .
Resp: 13.9 µM

Req: // next record O=c1c(Cc2ccc3c(c2)OCO3)nnc2sc(-c3cc(F)c(Cl)cc3Cl)nn12
Resp: 63.7 µM

Req: Now the same for Cn1c(COC(=O)NCCc2ccccn2)nc2c(N3CCOCC3)nc(Cl)nc21
Resp: 2.62 µM

----------
Tested on: KM20L2 colon
Test: NCI tumour cell line growth inhibition, 48 h
measured-quantity: TGI

Examples with answers:
>  <compound>
NC(=O)CCC(N=c1c2ccccc2n(O)c2ccccc12)C(=O)O (stereo not drawn)

>  <target-desc>
KM20L2 colon

>  <TGI>
> 100 µM

$$$$
>  <compound>
CN(C)C(=S)/N=c1\ss/c(=N\C(=S)N(C)C)n1-c1cccc(Cl)c1

>  <target-desc>
KM20L2 colon

>  <TGI>
> 100 µM

$$$$
>  <compound>
O=C(CC1=Nc2nnc(CCCCCCCc3nnc4n3C(=O)C(CC(=O)c3ccc5ccccc5c3)=N4)n2C1=O)c1ccc2ccccc2c1

>  <target-desc>
KM20L2 colon

>  <TGI>
> 100 µM

$$$$
>  <compound>
O=c1[nH]ccc(CNC23CC4CC(CC(C4)C2)C3)c1O

>  <target-desc>
KM20L2 colon

>  <TGI>
> 100 µM

$$$$
>  <compound>
CC1=C(CO)C(=O)OC(C(C)C2CCC3C4CC5OC56C(O)C(N5CC5)=CC(=O)C6(C)C4CCC23C)C1 (stereo not drawn)

>  <target-desc>
KM20L2 colon

>  <TGI>
9.87 µM

$$$$

Req: Item under review: Cc1ccc(C2=CC(=O)c3ccccc3C2=O)n1-c1ccccc1 . Reported TGI?
Resp: > 100 µM

----------
Tested on: OVCAR-4 ovarian
Test: NCI tumour cell line growth inhibition, 48 h
measured-quantity: TGI

Some entries whose results are on file:
>  <molecule>
C=C(Br)CN=CN(C)C

>  <measured-quantity>
TGI

>  <observed>
> 100 µM

$$$$
>  <molecule>
O=C1NC(O)c2cc3ccccc3cc2O1 (stereo not drawn)

>  <measured-quantity>
TGI

>  <observed>
> 100 µM

$$$$
>  <molecule>
O=C(Nc1ccccc1)N1CCN(C(=O)Nc2ccccc2)C1=S

>  <measured-quantity>
TGI

>  <observed>
> 100 µM

$$$$
>  <molecule>
[N-]=[N+]=CC(=O)CCC(N)C(=O)O (stereo not drawn)

>  <measured-quantity>
TGI

>  <observed>
> 206 µM

$$$$
>  <molecule>
O=c1[nH]c(C2CCCN2)nc2c1oc1ccc(Cl)cc12 (stereo not drawn)

>  <measured-quantity>
TGI

>  <observed>
> 100 µM

$$$$

Now let's try a different one.
Req: For the molecule shown here, CC1=NN(c2cccc(Cl)c2)C(=O)/C1=C\c1cn(CC(O)CN2CCCCC2)c2ccccc12 (stereo not drawn) , give the reported TGI.
Resp: 28.1 µM

----------
Test system: HCT-15 colon
Experiment: NCI tumour cell line growth inhibition, 48 h
Reported TGI values for the following compounds.

Req: Short answer please: TGI, HCT-15 colon, entry COc1ccc(-n2cc(-c3ccc(OC)c(OC)c3)[nH]c2=O)cc1
Resp: > 100 µM
